experimental system: Syk (Homo sapiens)
assay endpoint: IC50

>  <smi>
Cn1cc(-c2ccnc3cc(-c4cccc(OCc5ccccc5)c4)oc23)cn1

>  <measured>
3 to 50 µM

$$$$
>  <smi>
COc1cc(-c2cc3nccc(-c4cccc(CN)c4)c3o2)cc(OC)c1OC

>  <measured>
< 0.3 µM

$$$$
>  <smi>
COc1cc(-c2cc3nccc(-c4c(F)cccc4OC)c3o2)cc(OC)c1OC

>  <measured>
< 0.3 µM

$$$$
>  <smi>
COc1cc(-c2cc3nccc(-c4ccc(C#N)cc4)c3o2)cc(OC)c1OC

>  <measured>
3 to 50 µM

$$$$

====

Recorded IC50 values for a group of molecules are listed next.
experimental system: Syk (Homo sapiens, UniProt P43405)

>  <smi>
Cc1c(Nc2ccnc3cc(-c4ccccc4)oc23)ccc2[nH]ccc12

>  <IC50>
0.3 to 3 µM

$$$$
>  <smi>
CC(C)c1cccc(-c2cc3nccc(-c4cnn(C)c4)c3o2)c1

>  <IC50>
0.3 to 3 µM

$$$$
>  <smi>
COc1cc(-c2cc3nccc(-c4cc(OC(F)(F)F)cc(C(=O)O)c4)c3o2)cc(OC)c1OC

>  <IC50>
< 0.3 µM

$$$$
>  <smi>
COc1ccc(-c2cc3nccc(-c4ccc(OC)cc4)c3o2)cc1

>  <IC50>
3 to 50 µM

$$$$
>  <smi>
C=C(C)c1ccc(-c2cc3nccc(Nc4ccc5[nH]ccc5c4C)c3o2)cc1

>  <IC50>
3 to 50 µM

$$$$
>  <smi>
COc1ccc(-c2cc3nccc(Nc4ccc5[nH]ccc5c4C)c3o2)cc1

>  <IC50>
3 to 50 µM

$$$$
>  <smi>
Fc1cc(F)cc(-c2cc3nccc(-c4cc(F)cc(F)c4)c3o2)c1

>  <IC50>
3 to 50 µM

$$$$
>  <smi>
COc1ccc(-c2cc3nccc(-c4ccccc4)c3o2)cc1NC(=O)[C@@H]1CCCN1

>  <IC50>
0.3 to 3 µM

$$$$
>  <smi>
COc1cc(-c2cc3nccc(-c4ccc5c(c4)OCO5)c3o2)cc(OC)c1OC

>  <IC50>
< 0.3 µM

$$$$
>  <smi>
Cn1cc(-c2ccnc3cc(-c4ccc5cn[nH]c5c4)oc23)cn1

>  <IC50>
< 0.3 µM

$$$$
>  <smi>
COc1cc(-c2cc3nccc(-c4cnc5c(c4)CCCO5)c3o2)cc(OC)c1OC

>  <IC50>
< 0.3 µM

$$$$
>  <smi>
COc1cc(-c2cc3nccc(-c4cccc5ncccc45)c3o2)cc(OC)c1OC

>  <IC50>
0.3 to 3 µM

$$$$
>  <smi>
COC(=O)c1cccc(-c2cc3nccc(-c4ccccc4)c3o2)c1

>  <IC50>
3 to 50 µM

$$$$

====

pIC50: −log10 of the molar value.
This document collects pIC50 values reported for KDR (Homo sapiens).
assay endpoint: pIC50

>  <smi>
COc1cc(-c2cc3nccc(-c4ccc(N)cc4)c3o2)cc(OC)c1OC

>  <experimental system>
KDR (Homo sapiens)
Sequence (P35968 20-1356): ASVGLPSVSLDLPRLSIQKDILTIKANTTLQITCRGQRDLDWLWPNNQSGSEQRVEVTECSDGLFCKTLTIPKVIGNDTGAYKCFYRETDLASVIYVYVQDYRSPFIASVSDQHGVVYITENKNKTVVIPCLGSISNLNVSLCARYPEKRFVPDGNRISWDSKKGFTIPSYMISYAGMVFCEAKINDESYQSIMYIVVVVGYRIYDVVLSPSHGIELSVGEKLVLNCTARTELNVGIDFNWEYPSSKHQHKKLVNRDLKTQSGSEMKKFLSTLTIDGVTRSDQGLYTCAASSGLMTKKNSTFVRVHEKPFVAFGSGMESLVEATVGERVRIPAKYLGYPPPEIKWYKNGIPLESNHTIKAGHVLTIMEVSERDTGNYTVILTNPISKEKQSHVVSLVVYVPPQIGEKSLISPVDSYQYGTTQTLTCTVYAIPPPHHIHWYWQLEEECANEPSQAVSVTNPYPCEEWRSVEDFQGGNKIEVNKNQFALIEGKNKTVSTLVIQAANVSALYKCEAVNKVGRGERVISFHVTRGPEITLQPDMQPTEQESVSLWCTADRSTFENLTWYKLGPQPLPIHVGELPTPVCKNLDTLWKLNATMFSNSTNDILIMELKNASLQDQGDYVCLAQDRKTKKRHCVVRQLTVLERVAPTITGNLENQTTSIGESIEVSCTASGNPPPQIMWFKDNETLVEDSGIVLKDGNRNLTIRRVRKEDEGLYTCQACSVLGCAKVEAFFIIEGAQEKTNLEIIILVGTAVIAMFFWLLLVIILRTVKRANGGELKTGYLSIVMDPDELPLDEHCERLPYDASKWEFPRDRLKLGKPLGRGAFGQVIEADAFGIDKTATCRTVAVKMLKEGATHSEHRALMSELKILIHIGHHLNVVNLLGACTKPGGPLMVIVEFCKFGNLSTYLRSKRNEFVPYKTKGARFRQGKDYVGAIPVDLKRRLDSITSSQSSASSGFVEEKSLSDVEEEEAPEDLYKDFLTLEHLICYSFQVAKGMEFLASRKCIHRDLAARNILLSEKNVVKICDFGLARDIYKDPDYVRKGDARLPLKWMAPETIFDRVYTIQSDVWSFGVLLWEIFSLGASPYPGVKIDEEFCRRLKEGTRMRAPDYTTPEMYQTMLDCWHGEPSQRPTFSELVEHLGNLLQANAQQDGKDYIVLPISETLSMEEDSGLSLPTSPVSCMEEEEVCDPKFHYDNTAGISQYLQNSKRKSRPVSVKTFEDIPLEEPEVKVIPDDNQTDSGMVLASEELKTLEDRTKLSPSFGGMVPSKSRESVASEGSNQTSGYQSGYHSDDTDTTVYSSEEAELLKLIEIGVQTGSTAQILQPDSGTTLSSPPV

>  <measured>
5.52 to 6.52

$$$$
>  <smi>
COc1cc(-c2cc3nccc(Nc4ccc5cn[nH]c5c4)c3o2)cc(OC)c1OC

>  <experimental system>
KDR (Homo sapiens)

>  <measured>
5.52 to 6.52

$$$$
>  <smi>
COc1ccc(-c2cc3nccc(-c4ccccc4)c3o2)cc1NC(=O)[C@@H]1C[C@@H](O)CN1

>  <experimental system>
KDR (Homo sapiens)

>  <measured>
5.52 to 6.52

$$$$
>  <smi>
COc1cc(-c2cc3nccc(-c4c[nH]c5ccccc45)c3o2)cc(OC)c1OC

>  <experimental system>
KDR (Homo sapiens)

>  <measured>
4.30 to 5.52

$$$$
>  <smi>
COc1cc(-c2cc3nccc(-c4cccc(OCCN)c4)c3o2)cc(OC)c1OC

>  <experimental system>
KDR (Homo sapiens)

>  <measured>
5.52 to 6.52

$$$$
>  <smi>
COc1cc(-c2cc3nccc(-c4ccc(CO)nc4)c3o2)cc(OC)c1OC

>  <experimental system>
KDR (Homo sapiens)

>  <measured>
4.30 to 5.52

$$$$
>  <smi>
COc1cc(-c2cc3nccc(-c4cnc5c(c4)CCCO5)c3o2)cc(OC)c1OC

>  <experimental system>
KDR (Homo sapiens)

>  <measured>
5.52 to 6.52

$$$$
>  <smi>
COc1ccc(-c2ccnc3cc(-c4cc(OC)c(OC)c(OC)c4)oc23)c(OC)c1

>  <experimental system>
KDR (Homo sapiens)

>  <measured>
5.52 to 6.52

$$$$
>  <smi>
COc1cc(-c2cc3nccc(-c4cccc(CN)c4)c3o2)cc(OC)c1OC

>  <experimental system>
KDR (Homo sapiens)

>  <measured>
5.52 to 6.52

$$$$
>  <smi>
COc1cc(-c2cc3nccc(-c4ccc5[nH]nnc5c4)c3o2)cc(OC)c1OC

>  <experimental system>
KDR (Homo sapiens)

>  <measured>
5.52 to 6.52

$$$$
>  <smi>
Cn1cc(-c2ccnc3cc(-c4ccc5nc[nH]c5c4)oc23)cn1

>  <experimental system>
KDR (Homo sapiens)

>  <measured>
5.52 to 6.52

$$$$
>  <smi>
Cn1cc(-c2ccnc3cc(-c4ccc5c(c4)OCCO5)oc23)cn1

>  <experimental system>
KDR (Homo sapiens)

>  <measured>
5.52 to 6.52

$$$$
>  <smi>
Cc1c(Nc2ccnc3cc(-c4ccc(N5CCOCC5)cc4)oc23)ccc2[nH]ccc12

>  <experimental system>
KDR (Homo sapiens)

>  <measured>
5.52 to 6.52

$$$$
>  <smi>
Cc1c(Nc2ccnc3cc(-c4ccc(CO)cc4)oc23)ccc2[nH]ccc12

>  <experimental system>
KDR (Homo sapiens)

>  <measured>
> 6.52

$$$$
>  <smi>
Cn1cc(-c2ccnc3cc(-c4ccc(S(C)(=O)=O)cc4)oc23)cn1

>  <experimental system>
KDR (Homo sapiens)

>  <measured>
4.30 to 5.52

$$$$
>  <smi>
Cc1c(Nc2ccnc3cc(-c4ccc5c(c4)OCO5)oc23)ccc2[nH]ccc12

>  <experimental system>
KDR (Homo sapiens)

>  <measured>
5.52 to 6.52

$$$$
>  <smi>
Cc1cc(C)cc(-c2cc3nccc(Nc4ccc5[nH]ccc5c4C)c3o2)c1

>  <experimental system>
KDR (Homo sapiens)

>  <measured>
5.52 to 6.52

$$$$
>  <smi>
COc1cc(-c2ccnc3cc(-c4cc(OC)c(OC)c(OC)c4)oc23)ccn1

>  <experimental system>
KDR (Homo sapiens)

>  <measured>
5.52 to 6.52

$$$$
>  <smi>
Cn1cc(-c2ccnc3cc(-c4ccc5cc[nH]c5c4)oc23)cn1

>  <experimental system>
KDR (Homo sapiens)

>  <measured>
4.30 to 5.52

$$$$
>  <smi>
COc1ccc(-c2cc3nccc(Nc4ccc5[nH]ccc5c4C)c3o2)cc1C

>  <experimental system>
KDR (Homo sapiens)

>  <measured>
5.52 to 6.52

$$$$
>  <smi>
Cc1c(Nc2ccnc3cc(-c4ccc5c(c4)OCCO5)oc23)ccc2[nH]ccc12

>  <experimental system>
KDR (Homo sapiens)

>  <measured>
5.52 to 6.52

$$$$
>  <smi>
COc1cc(-c2cc3nccc(-c4cc(OC)c(OC)c(OC)c4)c3o2)cc(OC)c1OC

>  <experimental system>
KDR (Homo sapiens)

>  <measured>
4.30 to 5.52

$$$$
>  <smi>
OCc1ccc(-c2cc3nccc(-c4ccc(CO)cc4)c3o2)cc1

>  <experimental system>
KDR (Homo sapiens)

>  <measured>
> 6.52

$$$$
>  <smi>
COc1cc(NC(=O)[C@@H]2C[C@@H](O)CN2)cc(-c2cc3nccc(-c4ccccc4)c3o2)c1

>  <experimental system>
KDR (Homo sapiens)

>  <measured>
4.30 to 5.52

$$$$
>  <smi>
COc1cc(-c2cc3nccc(-c4cnn(C)c4)c3o2)ccc1O

>  <experimental system>
KDR (Homo sapiens)

>  <measured>
5.52 to 6.52

$$$$
>  <smi>
COc1ccc(OC)c(-c2cc3nccc(-c4cccc(C(=O)N[C@@H]5CCCC[C@@H]5N)c4)c3o2)c1

>  <experimental system>
KDR (Homo sapiens)

>  <measured>
5.52 to 6.52

$$$$
>  <smi>
Cc1ccc(-c2cc3nccc(Nc4ccc5[nH]ccc5c4C)c3o2)cc1

>  <experimental system>
KDR (Homo sapiens)

>  <measured>
5.52 to 6.52

$$$$
>  <smi>
COc1ccc(-c2cc3nccc(-c4cnn(C)c4)c3o2)cc1

>  <experimental system>
KDR (Homo sapiens)

>  <measured>
5.52 to 6.52

$$$$
>  <smi>
Cc1cccc(-c2cc3nccc(Nc4ccc5[nH]ccc5c4C)c3o2)c1

>  <experimental system>
KDR (Homo sapiens)

>  <measured>
5.52 to 6.52

$$$$

Values compiled from patent US9006440B2.
